# target.or.system: AT2 Receptor (AT2R) (Homo sapiens (Human))
# Sequence (P50052 whole entry): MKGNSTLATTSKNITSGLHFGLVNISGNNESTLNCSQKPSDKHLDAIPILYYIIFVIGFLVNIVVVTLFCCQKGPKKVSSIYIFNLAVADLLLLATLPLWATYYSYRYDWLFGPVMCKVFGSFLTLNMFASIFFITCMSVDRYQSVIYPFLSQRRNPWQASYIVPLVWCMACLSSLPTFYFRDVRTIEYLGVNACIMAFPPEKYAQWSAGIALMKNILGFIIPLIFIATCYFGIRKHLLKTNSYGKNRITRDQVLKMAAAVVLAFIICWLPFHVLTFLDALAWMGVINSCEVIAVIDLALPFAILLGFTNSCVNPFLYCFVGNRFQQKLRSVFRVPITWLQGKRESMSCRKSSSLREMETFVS
# protocol.details: Measurement of inhibitory activity on AT2 receptor (Tag-lite HTRF, Tb-labeled AT2R cells, angiotensin receptor red agonist)
# Type: binding
# run.conditions: 1 h room temperature
readout.type: pIC50
Lab note: report pIC50 as minus log10 of the concentration in molar units, number only.

These recorded examples may help you get a feel for the data.
{"columns": ["compound", "target.or.system", "pIC50"],
 "data": [
  ["O=C(O)[C@@H]1[C@H]2CC[C@@H](CN1C(=O)C(c1ccccc1)c1ccccc1)N2C(=O)Nc1ccccc1 [Compound C83]", "AT2 Receptor (AT2R) (Homo sapiens (Human))", 7.74],
  ["O=C(O)[C@@H]1[C@H]2CC[C@@H](CN1C(=O)C(c1ccccc1)c1ccccc1)N2C(=O)OCc1ccccc1 [Compound C34]", "AT2 Receptor (AT2R) (Homo sapiens (Human))", 7.45],
  ["CN(Cc1cccc(Cl)c1)C(=O)N1[C@H]2CC[C@@H]1[C@@H](C(=O)O)N(C(=O)N(c1ccccc1)c1ccccc1)C2 [Compound C151]", "AT2 Receptor (AT2R) (Homo sapiens (Human))", 7.13],
  ["CN(Cc1ccccn1)C(=O)N1[C@H]2CC[C@@H]1[C@@H](C(=O)O)N(C(=O)C(c1ccccc1)c1ccccc1)C2 [Compound C123]", "AT2 Receptor (AT2R) (Homo sapiens (Human))", 7.93],
  ["Cc1ccc([C@H]2CCCN2C(=O)N2[C@H]3CC[C@@H]2[C@@H](C(=O)O)N(C(=O)N(c2ccccc2)c2ccccc2)C3)cc1 [Compound C143]", "AT2 Receptor (AT2R) (Homo sapiens (Human))", 8.00]
]}

Given O=C(O)[C@@H]1[C@H]2CC[C@@H](CN1C(=O)N(c1ccccc1)c1ccccc1)N2C(=O)N1CCc2ccccc2C1 [Compound C131] , respond with its pIC50.
6.31

Assign pIC50 to the following record: O=C(O)[C@@H]1[C@H]2CC[C@@H](CN1C(=O)N1c3ccccc3C=Cc3ccccc31)N2C(=O)N(c1ccccc1)c1ccccc1 [Compound C7]
7.08

Assign pIC50 to the following record: CCN(Cc1ccccc1)C(=O)N1[C@H]2CC[C@@H]1[C@@H](C(=O)O)N(C(=O)N(c1ccccc1)c1ccccc1)C2 [Compound C155]
8.04

Identify pIC50 associated with the compound CC(C(=O)N1C[C@@H]2CC[C@H]([C@H]1C(=O)O)N2C(=O)OCc1ccccc1)(c1ccccc1)c1ccccc1 [Compound C157]
7.57

====

Here we list compounds with their recorded pIC50 when tested on AT2 Receptor (AT2R) (Homo sapiens (Human)).
Answer as the number alone; pIC50 is minus log10 of concentration in mol/L.

Look over these answered cases.
{"columns": ["compound", "pIC50"],
 "data": [
  ["CN(Cc1ccccc1)C(=O)N1[C@H]2CC[C@@H]1[C@@H](C(=O)O)N(C(=O)C1(c3ccccc3)CCCCC1)C2", 6.46],
  ["O=C(O)[C@@H]1[C@H]2CC[C@@H](CN1C(=O)N(c1ccccc1)c1ccccc1)N2C(=O)/C=C/c1ccccc1", 6.65],
  ["O=C(O)[C@@H]1[C@H]2CC[C@@H](CN1C(=O)C(c1ccccc1)c1ccccc1)N2C(=O)NCc1ccccc1", 7.26]
]}

With AT2 Receptor (AT2R) (Homo sapiens (Human)) as the test system, provide measured pIC50 for this compound: `CC1(N(Cc2ccsc2)C(=O)N2[C@H]3CC[C@@H]2[C@@H](C(=O)O)N(C(=O)N(c2ccccc2)c2ccccc2)C3)CC1`
7.99

Would you please give the reported pIC50 of O=C(O)[C@@H]1[C@H]2CC[C@@H](CN1C(=O)C(c1ccccc1)c1ccccc1)N2C(=O)C(c1ccccc1)c1ccccc1 [Compound C1] with AT2 Receptor (AT2R) (Homo sapiens (Human))?
8.18

Give reported pIC50 for `CCN(Cc1ccccc1Cl)C(=O)N1[C@H]2CC[C@@H]1[C@@H](C(=O)O)N(C(=O)N(c1ccccc1)c1ccccc1)C2` (AT2 Receptor (AT2R) (Homo sapiens (Human)))
8.04

Data origin, for the record: patent US11453690B2
